- System: Vero E6
- experiment summary: cell viability relative to DMSO; higher = less toxic
- test settings: 72 h; 1000 nM
reported endpoint: cell viability (%)
Give bare numbers, in %.

Please give cell viability for each item listed below.
1. COc1ccc(C(=O)/C(Cc2cc(OC)c(OC)c(OC)c2)=C(\C(=O)O)c2ccc3c(c2)OCO3)cc1
2. Nc1ccc(-c2ccc3ncc4ccc(=O)n(-c5cccc(C(F)(F)F)c5)c4c3c2)cn1 [torin-2]
3. COc1ccc(-c2cc3c(C)nc(N)nc3n([C@H]3CC[C@H](OCCO)CC3)c2=O)cn1
4. C[N+](C)(C)CC#CCN1CCCC1=O [oxotremorine-M]
5. CCC(=O)N1CCN(c2ccc(-n3c(=O)ccc4cnc5ccc(-c6cnc7ccccc7c6)cc5c43)cc2C(F)(F)F)CC1 [torin-1]

Response:
[109, 36, 30, 96, 57.9]

Please give cell viability for each item listed below.
1. O=C1OC(CN2CCOCC2)CN1/N=C/c1ccc([N+](=O)[O-])o1 (centres undefined) [furaltadone]
2. CC(C)NC(=O)N1CC[C@H](NC2=Nc3cc(F)ccc3N(CC(F)F)c3ccc(Cl)cc32)C1 [NVS-PAK1-1]
3. CSc1ccc(C(=O)c2[nH]c(=O)[nH]c2C)cc1 [enoximone]
4. CCOc1ccc(Cc2cc([C@]34OC[C@](CO)(O3)[C@@H](O)[C@H](O)[C@H]4O)ccc2Cl)cc1 [ertugliflozin]

Response:
1. 109
2. 92.3
3. 90.6
4. 101

---

What cell viability was measured for each of the following?
- Test system: Calu-3
- experiment summary: cell viability relative to DMSO; higher = less toxic
- test settings: 72 h; 1000 nM
One number for each entry, in %.

NC(=O)CN1CC(O)CC1=O (configuration not stated)    93.9
O=C1COc2c(CCNCCN(C(=O)CCNCCc3ccc(Cl)c(Cl)c3)C3CCCCC3)ccc(O)c2N1    102
OC(CCN1CCCCC1)(c1ccccc1)c1ccccc1    99.4

Please give cell viability for each item listed below.
1. C=C1c2cccc(O)c2C(=O)C2=C(O)[C@]3(O)C(=O)C(C(N)=O)=C(O)[C@@H](N(C)C)[C@@H]3[C@@H](O)[C@H]12
2. C[N+](C)(C)CC#CCN1CCCC1=O
3. O=C(NC(NC(=S)Nc1ccc(F)c([N+](=O)[O-])c1)C(Cl)(Cl)Cl)C(c1ccccc1)c1ccccc1 (configuration not stated)
4. CC(=O)OCC(=O)[C@@]1(O)CC[C@H]2[C@@H]3CCC4=CC(=O)C=C[C@]4(C)[C@@]3(F)[C@@H](O)C[C@@]21C [isoflupredone-acetate]

Response:
1. 83
2. 102
3. 104
4. 93.2

---

- System: Vero E6
- experiment summary: cell viability relative to DMSO; higher = less toxic
- test settings: 72 h; 100 nM
reported endpoint: cell viability (%)
One number for each entry, in %.

Known results for compounds:
O/N=C/c1ccc(-c2ccc(O)c(F)c2)c(Cl)c1O [FERb-033]    98.8
CN1CCC[C@@H]1CCSc1ccc(O)cc1 [SIB-1553A]    97.5
CCn1cc(C(=O)O)c(=O)c2ccc(-c3ccncc3)cc21 [rosoxacin]    89.1
N#Cc1ccc(NCCNCC(=O)N2CCC[C@H]2C#N)nc1 [NVP-DPP728]    90.3

Please give cell viability for each item listed below.
1. CCCc1ccc(C(=O)O)cc1 [4-propylbenzoic-acid]
2. COC1=C2C[C@@H](C)C[C@H](OC)[C@H](O)[C@@H](C)/C=C(\C)[C@H](OC(N)=O)[C@@H](OC)/C=C\C=C(/C)C(=O)NC(=CC1=O)C2=O [geldanamycin]
3. O=C(Nc1ncc(SCCN2CCCC2)s1)[C@]1(c2ccc(S(=O)(=O)C3CC3)cc2)C[C@H]1C1CCCCC1
4. COc1ccc(S(=O)(=O)N2CCC[C@H]2C(=O)Nc2cc(C)cc(C)c2)cc1
5. C=CCc1cc(OC)c(O)c(C(=O)NCCO)c1 [alibendol]
6. O=C1C2CCN(CC2)C1(CO)CO [PRIMA1]
7. C=CC(=O)Nc1cccc(Oc2nc(Nc3ccc(N4CCN(C)CC4)cc3)ncc2Cl)c1 [WZ-3146]

Response:
91.9
98
97.2
107
99.6
89.6
106

Please give cell viability for each item listed below.
1. C[N+](C)(C)CC#CCN1CCCC1=O [oxotremorine-M]
2. Cc1c(CC(C)(C)C(=O)O)n(Cc2ccc(Cl)cc2)c2ccc(F)cc12
3. CCC(=O)O[C@]1(C(=O)COC(C)=O)CC[C@H]2[C@@H]3C[C@H](C)C4=CC(=O)C=C[C@]4(C)[C@H]3[C@@H](O)C[C@@]21C [methylprednisolone-aceponate]
4. c1cc2c(cc1[C@H]1OC[C@H]3[C@@H]1CO[C@@H]3c1ccc3c(c1)OCO3)OCO2 [sesamin]
5. FC(F)(F)c1ccccc1-c1cc(C(F)(F)F)c2[nH]c(C3=NOC4(CCCCC4)C3)nc2c1 [TC-I-2014]
6. NC(=O)c1cccc(-c2cc(Nc3ccc(OC(F)(F)F)cc3)ncn2)c1 [GNF-2]

Response:
93.5
95.2
92.6
94.6
90.1
94.6

Please give cell viability for each item listed below.
1. Cc1ccc2c(c1)c1c3n2CCNC3CCC1 (stereo not given) [pirlindole]
2. CNC(=O)c1ccccc1Nc1cc(Nc2ccc(N3CCOCC3)cc2OC)ncc1C(F)(F)F [VS-4718]
3. COc1ccc(C(CN(C)C)C2(O)CCCCC2)cc1 (stereo not given) [venlafaxine]
4. CCN1CCN(C(=O)N[C@@H](C(=O)N[C@@H]2C(=O)N3[C@@H]2SC(C)(C)[C@@H]3C(=O)O)c2ccccc2)C(=O)C1=O [piperacillin]
5. CCCCCCCCCCCCCCC[C@@H](O)[C@@H](N)CO [safingol]
6. CC[C@@H]1C(=O)N(C)c2cnc(Nc3ccc(C(=O)N[C@H]4CC[C@H](N5CCN(CC6CC6)CC5)CC4)cc3OC)nc2N1C(C)C [volasertib]

Response:
1: 97.6; 2: 85.8; 3: 84.1; 4: 97.7; 5: 96.1; 6: 90.6

Please give cell viability for each item listed below.
1. CCCN(CCC)[C@@H]1CCc2c(OC)cccc2[C@@H]1C [UH-232-(+)]
2. O=C(Nc1cccc(Cl)c1)Nc1ncc(CCNc2ncnc3ccsc23)s1 [SNS-314]

Response:
1. 96.5
2. 86.3

---

- Test system: Caco-2
- experiment summary: cell viability relative to DMSO; higher = less toxic
- test settings: 72 h; 1000 nM
reported endpoint: cell viability (%)
One number for each entry, in %.

Please give cell viability for each item listed below.
1. CC(C)c1ccc2oc3nc(N)c(C(=O)O)cc3c(=O)c2c1 [amlexanox]
2. COc1ccc(-n2nc(CCC(=O)N(C)O)cc2-c2ccc(Cl)cc2)cc1 [tepoxalin]
3. Nc1ccc(C(=O)O)cc1 [potassium-p-aminobenzoate]
4. COc1ccc(C(CN(C)C)C2(O)CCCCC2)cc1 (stereo unspecified) [venlafaxine]
5. O=C1C2CCN(CC2)C1(CO)CO [PRIMA1]
6. C[C@H]1O[C@@H](n2cc(F)c(=O)[nH]c2=O)[C@H](O)[C@@H]1O [doxifluridine]
7. Cn1c(=O)[nH]c2ncn(C)c2c1=O [paraxanthine]
8. O=C1c2ccccc2C(Cc2ccnc(F)c2)(Cc2ccnc(F)c2)c2ccccc21 [DMP-543]

Response:
1: 89.8; 2: 99.4; 3: 102; 4: 127; 5: 96.3; 6: 99.3; 7: 102; 8: 81.2

---

- System: HepG2
- experiment summary: cell viability relative to DMSO; higher = less toxic
- test settings: 72 h; 10000 nM
reported endpoint: cell viability (%)
One number for each entry, in %.

Known results for compounds:
O=C(O)c1cc(O)c2c(c1)[C@H]([C@H]1c3cc(C(=O)O)cc(O)c3C(=O)c3c(O[C@@H]4O[C@H](CO)[C@@H](O)[C@H](O)[C@H]4O)cccc31)c1cccc(O[C@@H]3O[C@H](CO)[C@@H](O)[C@H](O)[C@H]3O)c1C2=O [sennoside-A]    92.4
O=S(=O)(Cc1ccccc1)Nc1ccc(-c2ccc3c(cnn3-c3ccc(F)cc3)c2)c(C(F)(F)F)c1    86.3
c1cc2c(cc1[C@H]1OC[C@H]3[C@@H]1CO[C@@H]3c1ccc3c(c1)OCO3)OCO2    106
CC1=CC(=O)c2ccccc2C1=O    99
CC(C)C(=O)c1ccc(O)c(O)c1    105

# next compound below
Request: // query cell viability value for entry "C[C@@](Cc1ccc(O)c(O)c1)(NN)C(=O)O"
Response: 95.8

---

- System: U2OS
- experiment summary: cell viability relative to DMSO; higher = less toxic
- test settings: 72 h; 10000 nM
What cell viability was measured for each of the following?
Numbers only, in %.

Known results for molecules:
CCCCCCCCCCCCCCC[C@@H](O)[C@@H](N)CO [safingol]    103
CC[C@@H]1C(=O)N(C)c2cnc(Nc3ccc(C(=O)N[C@H]4CC[C@H](N5CCN(CC6CC6)CC5)CC4)cc3OC)nc2N1C(C)C [volasertib]    18.7
CCC(=O)c1ccc(OCC(O)CN2CCN(c3ccccc3)CC2)cc1 (configuration not stated) [centpropazine]    97.3
O=C(O)[C@H](O)[C@@H](O)[C@H](O[C@@H]1O[C@H](CO)[C@H](O)[C@H](O)[C@H]1O)[C@H](O)CO [maltobionic-acid]    101
Cc1n[nH]c(C)c1Cc1sc2c(c1C(=O)N1C[C@H](O)CO1)c(=O)n(C)c(=O)n2CC(C)C    89.7
CCc1cc(Cl)c(OC)c(C(=O)NC[C@@H]2CCCN2CC)c1O [eticlopride]    94.8
CCSc1ccc2c(c1)N(CCCN1CCN(C)CC1)c1ccccc1S2 [thiethylperazine]    91.6
FC(F)(F)C(F)(F)C(F)(F)N(C(F)(F)C(F)(F)C(F)(F)F)C(F)(F)C(F)(F)C(F)(F)F [perfluamine]    100
OC[C@H]1O[C@@H](c2ccc(Cl)c(Cc3ccc(O[C@H]4CCOC4)cc3)c2)[C@H](O)[C@@H](O)[C@@H]1O [empagliflozin]    96.4
CNC[C@@H]1CC[C@@H](N)[C@@H](O[C@H]2[C@H](O)[C@@H](O[C@H]3OC[C@](C)(O)[C@H](NC)[C@H]3O)[C@H](N)C[C@@H]2N)O1 [micronomicin]    99.3

Please give cell viability for each item listed below.
1. CC(C)c1cc(CNc2nc(Nc3cc(C4CC4)[nH]n3)cc(N3CCN(C)CC3)n2)on1 [XL228]
2. NCC(=O)N1C[C@H](NC(=O)c2ccccc2)C[C@H]1C(=O)O [danegaptide]

Response:
1: 0; 2: 99.3

Please give cell viability for each item listed below.
1. O=S(=O)(c1cccc2c(Cl)cccc12)N1CCCNCC1 [ML9]
2. C=C1/C(=C\C=C2/CCC[C@]3(C)[C@@H]([C@H](C)CCCC(C)C)CC[C@@H]23)C[C@@H](O)C[C@@H]1O [alfacalcidol]
3. CC(C)(C)c1cc(C(=O)/C=C/c2ccc(C(=O)O)cc2)cc(C(C)(C)C)c1 [CH55]
4. Cc1ncc(CO)c(/C=N/NC(=O)c2ccncc2)c1O [pyridoxal-isonicotinoyl-hydrazone]
5. C[C@@](Cc1ccc(O)c(O)c1)(NN)C(=O)O [carbidopa]

Response:
1. 103
2. 91.5
3. 64.4
4. 102
5. 102

Please give cell viability for each item listed below.
1. CCCCCCCCCCCCCCCCOc1nc2ccc(C)cc2c(=O)o1 [cetilistat]
2. CCOC(=O)C1=C(N)Oc2ccc(Br)cc2C1C(C#N)C(=O)OCC (configuration not stated) [HA-14-1]
3. CC(C)NCCCn1c(Sc2cc3c(cc2I)OCO3)nc2c(N)ncnc21 [PU-H71]
4. O=C(O)c1cc(O)c2c(c1)[C@H]([C@H]1c3cc(C(=O)O)cc(O)c3C(=O)c3c(O[C@@H]4O[C@H](CO)[C@@H](O)[C@H](O)[C@H]4O)cccc31)c1cccc(O[C@@H]3O[C@H](CO)[C@@H](O)[C@H](O)[C@H]3O)c1C2=O [sennoside-A]

Response:
1. 103
2. 110
3. 3.8
4. 88.3

Please give cell viability for each item listed below.
1. CC(C)=CCC[C@](C)(O)[C@@H]1CC=C(C)CC1 [levomenol]
2. CC(C)n1cnc2c(C(=O)N[C@H]3CN4CCC3CC4)cc(Cl)cc21
3. N#Cc1ccc(NCCNCC(=O)N2CCC[C@H]2C#N)nc1 [NVP-DPP728]

Response:
[103, 97.8, 99.4]
